# System: CRL-7250
# METHOD_DESCRIPTION: Cytotoxic Profiling of Annotated Libraries Using Quantitative High-Throughput Screening (AID 1296008); note: nearly all actives have a fitted effect of over 60% in size
# CONDITION_DETAILS: Five cell lines viability, CellTiter-Glo ATP luminescence, 48-72 h
Inconclusive results are not listed. The source made the active and inactive calls. Calls come from the whole dose curve; as a rule, active = well fitted inhibition curve with a large enough effect; inconclusive = small, poorly fitted or top-dose-only effect; inactive = flat fitted curve, though single readings scatter.
PROPERTY_NAME: outcome

Below are worked cases with known answers.
> print(dat)
                                   compound  reported.result
1  CC1(C)CC=C(c2cnc3ccccc3c2)c2cc(C(=O)Nc3ccc(C(=O)O)cc3)ccc21         inactive
2  O=C(O)CCc1cc2ccoc2cc1O[C@@H]1O[C@H](CO)[C@@H](O)[C@H](O)[C@H]1O         inactive
3  C[C@@H]1C[C@H]2OC(=O)[C@@]3(C)CCC[C@](C)(C23)[C@@]1(O)CCC1=CC(=O)OC1O (stereo partly drawn)         inactive
4  O=C(/C=C/c1ccc(O)cc1)OC[C@H]1O[C@H](O[C@@]2(CO)O[C@@H](CO)[C@H](O)[C@H]2O)[C@H](O)[C@@H](O)[C@@H]1O         inactive
5  C[C@H]1CCN2C[C@]34C[C@@]5(C(=O)Nc6c5ccc5c6OC=CC(C)(C)O5)C(C)(C)C3C[C@]12C(=O)N4C (stereo partly drawn)         inactive

Inquiry: Fill in: outcome of COC(=O)C(CC1(O)c2ccccc2N2C(=O)C(C)(C)N(O)C21)n1cnc2ccccc2c1=O (stereo not drawn) is ___
Reply text: inactive

Inquiry: Next record, please: C=C1CC[C@H]2[C@@](C)(CCC(OC3OC(CO)C(O)C(O)C3O)[C@@]2(C)CO)C1C(=O)CC1=CCOC1=O (stereo partly drawn)
Reply text: inactive

Inquiry: Next record, please: COc1ccc(O[C@@H]2O[C@H](CO)[C@@H](O)[C@H](O)[C@H]2O)cc1OC
Reply text: inactive

The reported measurements were obtained from PubChem BioAssay (NCATS).
